Target: HER3 on MCF7 cells (with endogenous HER2) (Homo sapiens, UniProt P21860 SEQ:20-1342)
Sequence (P21860 20-1342 E560G/E1064G): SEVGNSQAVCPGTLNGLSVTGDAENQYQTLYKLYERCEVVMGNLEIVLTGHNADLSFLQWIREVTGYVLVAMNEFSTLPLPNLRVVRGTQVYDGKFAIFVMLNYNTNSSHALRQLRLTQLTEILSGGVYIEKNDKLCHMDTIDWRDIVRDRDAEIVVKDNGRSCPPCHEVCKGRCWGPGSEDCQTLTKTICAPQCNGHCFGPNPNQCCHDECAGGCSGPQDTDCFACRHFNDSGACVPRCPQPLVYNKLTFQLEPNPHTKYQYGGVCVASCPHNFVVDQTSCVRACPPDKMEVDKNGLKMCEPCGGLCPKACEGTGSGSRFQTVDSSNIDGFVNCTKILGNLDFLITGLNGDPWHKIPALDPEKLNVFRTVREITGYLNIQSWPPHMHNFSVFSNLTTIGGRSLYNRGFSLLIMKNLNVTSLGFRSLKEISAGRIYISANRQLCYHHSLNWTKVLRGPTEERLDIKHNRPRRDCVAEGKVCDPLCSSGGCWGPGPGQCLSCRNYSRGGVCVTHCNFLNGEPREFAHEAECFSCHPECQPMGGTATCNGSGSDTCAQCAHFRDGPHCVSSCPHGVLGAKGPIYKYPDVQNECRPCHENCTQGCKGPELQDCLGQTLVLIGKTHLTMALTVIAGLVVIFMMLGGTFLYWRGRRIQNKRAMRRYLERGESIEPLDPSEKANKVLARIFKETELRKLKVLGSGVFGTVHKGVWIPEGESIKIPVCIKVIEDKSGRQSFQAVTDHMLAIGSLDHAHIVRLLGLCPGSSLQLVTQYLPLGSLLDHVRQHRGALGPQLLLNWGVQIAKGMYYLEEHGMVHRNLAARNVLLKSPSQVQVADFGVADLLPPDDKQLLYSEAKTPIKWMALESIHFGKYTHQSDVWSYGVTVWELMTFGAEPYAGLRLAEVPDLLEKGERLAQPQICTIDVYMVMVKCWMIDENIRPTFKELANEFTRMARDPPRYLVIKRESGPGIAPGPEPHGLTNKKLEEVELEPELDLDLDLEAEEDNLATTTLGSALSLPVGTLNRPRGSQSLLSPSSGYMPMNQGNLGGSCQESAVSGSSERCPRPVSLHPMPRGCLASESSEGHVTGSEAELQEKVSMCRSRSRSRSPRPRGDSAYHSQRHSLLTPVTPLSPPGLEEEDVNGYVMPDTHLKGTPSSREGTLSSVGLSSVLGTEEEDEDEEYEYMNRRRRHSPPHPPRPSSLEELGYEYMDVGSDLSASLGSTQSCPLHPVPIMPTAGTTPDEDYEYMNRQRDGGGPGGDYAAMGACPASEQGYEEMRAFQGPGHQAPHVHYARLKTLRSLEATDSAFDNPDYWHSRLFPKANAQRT
Assay: competition; low affinity site on MCF7 cells, 4 C, PBS, +/-2.2, Scatchard
Settings: label: internal 32P; triple hairpin loop
Procedure: MCF7 cells (ATCC) were grown to 70% confluency on 6 well plates and washed with ice cold PBS. Following the washes, cells were incubated at 4° C. with 1 mL ice cold PBS or PBS containing 200 nM heregulin. After four hours an equal volume of ice cold PBS containing two microliter internally ³²P labeled A30 aptamer (80,000 cpm/μL), 20 μL RNAse inhibitor (20 units/μL), and varying concentrations of unlabeled aptamer were added. […] Displaced and bound radiolabeled aptamer was measured in duplicate. […]
METRIC: pKd
Numbers only, as −log10 of the molar value.

The reported value for A30 (ssRNA) RNA: GGGAAUUCCGCGUGUGCCAGCGAAAGUUGCGUAUGGGUCACAUCGCAGGCACAUGUCAUCUGGGCGGUCCGUUCGGGAUCCUC in terms of pKd is 7.68

Values compiled from patent US20070027096.
